Reference for the values: PubChem BioAssay (NCI)

test system: NCI-H522 lung; test: NCI tumour cell line growth inhibition, 48 h
Experimental Readout: TGI

Examples with answers:
COc1ccc2c(O)c(Oc3ccc(Cl)cc3)c(=O)oc2c1 | > 100 µM
O=C(CNc1ccccc1[N+](=O)[O-])Nn1cnc2ccc(S(=O)(=O)Nc3ccccc3[N+](=O)[O-])cc2c1=O | > 100 µM

Prompt: # input molecule: "COc1ccc2c(c1)/C(=C/c1c(O)[nH]c(=S)[nH]c1=O)C=N2" ; wanted: its TGI
Completion: > 100 µM

---

system: MCF7 breast; assay: NCI tumour cell line growth inhibition, 48 h
Experimental Readout: TGI

Below are worked cases with known answers.
O=[N+]([O-])c1ccc(C2=NCCO2)cc1 | > 100 µM
NCCCCCC(CCN)SCC1OC(n2cnc3c(N)ncnc32)C(O)C1O (stereo not given) | > 1500 µM

Prompt: Would you kindly share the measured TGI for "O=C(CCC(=O)c1ccsc1)c1ccsc1" ?
Completion: > 100 µM

Prompt: Would you mind telling me what TGI value was observed for COc1cccc(OC)c1C1ON=C(c2ccccc2)N1C12CC3CC(CC(C3)C1)C2 (stereo not given) ?
Completion: > 100 µM

Prompt: Quick one: TGI for "CC(C)=CCC[C@@H](C)[C@H]1CC[C@@]2(C)[C@@H]3CC[C@H]4C(C)(C)[C@@H](O)CC[C@@]45C[C@@]35CC[C@]12C" ?
Completion: > 100 µM
